assay: yeast display, Sf9 membrane polyspecificity reagent, FACS + sequencing; frameworks hold sequencing errors
outcome-measure: polyreactivity (PSR sort gate)

Example results:
QVQLVESGGGLVQAGGSLRLSCAASGSIFYPNVMGWDRQAPGKERELVAAIRTSGGSTYYADSVKGRFTISRDNAKNTVYLQMNSLKPEDTAVYYCAADYIYVKYEYWGQGTQVTVSS    high polyreactivity
QVQLVESGGGLVQAGGSLRLSCAASGRTFYEYAMGWYRQAPGKERELVAGITSGGSTNYADSVKGRFTISRDNAKNTVYLQMNSLKPEDTAVYYCDASYWGYEYDYWGQGTQVTVSS    low polyreactivity
QVQLVESGGGLVQAGGSLRLSCAASGSILSLYTMGWYRQAPGKERELVAAITSRGTRTYYADSVKGRFTISRDYAKNTVYLQMNRLKPEDTAVYYCAAGSYYWGQGTQVTVSS    high polyreactivity
QVQLVESGGGLVQAGGSLRLSCAASGITFYKYTMGWYRQAPGKERELVAAISVRGGRTYYADSVKGRFTISRDNAKNTVYLQMNSLKPEDTAVYYCNRVPKDAYDYWGQGTQVTVSS    high polyreactivity
QVQLVESGGVLVQAGGSLRLSCAASGRTFRRNAMGWYRQAPGKERELVAGIRSSGGSTYYADSVKGRFTISRDNAKNTVYLQINSLKQEDTAVYYCNAVGRPRYGHGFDHWGQGTQVTVSS    high polyreactivity
QVQLVESGGGLVQAGGSLRISCAASGSIFASNTMGWYRQARGTERELVAGITKIGSSTYYADSVTGRFTISRDNAKNTVYLKMNSLKPEDTAVYYCNAYGPNIYSSRYDYWGQGTQVTVSS    low polyreactivity

Just so you know, measured polyreactivity (PSR sort gate) for QVQLVDSGGGLVQAGGSLRLSCSASVRTFRGTAMGWYRHAPGKEREMVAPITYRTGSKYYPDSVKGRFTNSRDNAKNTVYLLLNSLKPEDSAVYYCAAVSGRSYDKDYFWGQGTQVTVSS came out at high polyreactivity

Lookup result for QVQLVESGVGLVQAGGSLRLSCAASGSIFIRNAMGWYRQAPGKERELVAAISGSGSSTYYADSVKGRFTISRDTAKNTVYLQMNILKPEDTAVYYCNTDRTHSYQYGGYDYWGQGTQVTVSS ; measured polyreactivity (PSR sort gate): low polyreactivity

Item: QVQLVESGGGLVQAGGSLRLSCAASGRTFVRYAMGWYRQAPGKERELVARITSRGTSTYYADSVKGRFTISRDNAKNTVYLQMNSLKPEDTAVYYCNKVRTFRDKSRYDYWGQGTQVTVSS | polyreactivity (PSR sort gate): low polyreactivity

meta.source: the nanobody polyreactivity screen of Harvey et al. (2022)
